The measurements presented in this section are drawn from patent US11337964B2.

Known IC50 of a selection of compounds
Molecular target: PDE4A1A (Homo sapiens, UniProt P27815)
Construct: purchased BPS 60040
Sequence (P27815 1-647 isoform P27815-4): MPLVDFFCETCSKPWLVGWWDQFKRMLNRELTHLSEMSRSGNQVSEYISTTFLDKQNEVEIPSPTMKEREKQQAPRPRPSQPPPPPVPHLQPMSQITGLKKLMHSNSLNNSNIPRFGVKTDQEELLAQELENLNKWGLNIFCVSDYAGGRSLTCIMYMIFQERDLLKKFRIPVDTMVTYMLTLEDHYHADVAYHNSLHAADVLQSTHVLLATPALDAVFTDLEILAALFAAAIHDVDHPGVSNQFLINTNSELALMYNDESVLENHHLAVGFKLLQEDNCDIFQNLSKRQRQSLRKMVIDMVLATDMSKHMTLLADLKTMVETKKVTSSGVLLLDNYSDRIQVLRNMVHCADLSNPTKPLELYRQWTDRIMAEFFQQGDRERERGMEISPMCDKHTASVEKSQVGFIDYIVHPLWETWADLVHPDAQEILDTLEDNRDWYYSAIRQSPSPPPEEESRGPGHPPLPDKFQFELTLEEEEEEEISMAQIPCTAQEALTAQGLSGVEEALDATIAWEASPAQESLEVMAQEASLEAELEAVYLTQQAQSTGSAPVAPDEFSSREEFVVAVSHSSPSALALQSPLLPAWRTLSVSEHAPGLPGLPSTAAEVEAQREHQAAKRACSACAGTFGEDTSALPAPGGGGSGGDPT
Test: PDE4 activity inhibition assay, PDE4A1A
Assay type: biochemical
Conditions: FAM-cAMP substrate, 30 minutes at room temperature
Respond with the bare value in nM.

Consider the worked cases shown below.
Form: Entry = CCOc1nc([C@@H](CS(C)(=O)=O)N2C(=O)c3c(F)ccc(NC(C)=O)c3C2=O)ccc1OC | System = PDE4A1A (Homo sapiens, UniProt P27815) | IC50 = ____ 0.58

// fetch PDE4A1A (Homo sapiens, UniProt P27815) IC50 for CCOc1nc([C@@H](CS(C)(=O)=O)N2C(=O)c3c(F)ccc(NC(=O)C4CC4)c3C2=O)ccc1OC 1.6

For the record CCOc1nc(C(CS(C)(=O)=O)N2C(=O)c3cccc(NC(=O)CN(C)C)c3C2=O)ccc1OC (stereo not shown) , what value of IC50 is listed for PDE4A1A (Homo sapiens, UniProt P27815)? 10.6

Missing value: IC50, PDE4A1A (Homo sapiens, UniProt P27815), entry CCOc1cc(C(CS(C)(=O)=O)N2C(=O)c3cccc(NC(C)=O)c3C2=O)cnc1OC (stereo not shown) . Fill in? 295

Quick check: IC50 on PDE4A1A (Homo sapiens, UniProt P27815), item [2H]C([2H])([2H])Oc1ccc([C@@H](CS(C)(=O)=O)N2C(=O)c3c(F)ccc(NC(C)=O)c3C2=O)cc1OC([2H])([2H])C([2H])([2H])[2H] ? 8.3

More entries:
Look up IC50 with PDE4A1A (Homo sapiens, UniProt P27815) for this compound: [2H]C([2H])([2H])Oc1ccc([C@H](CS(C)(=O)=O)N2C(=O)c3cc(F)cc(NC(C)=O)c3C2=O)nc1OCC 32.1

Notebook entry, PDE4A1A (Homo sapiens, UniProt P27815) assay: IC50 of CCOc1nc([C@H](CS(C)(=O)=O)N2C(=O)c3cc(F)cc(NC(C)=O)c3C2=O)ccc1OC = ? 17

Lab note: need IC50 for [2H]C([2H])([2H])Oc1ccc([C@@H](CS(C)(=O)=O)N2C(=O)c3c(Cl)ccc(NC(C)=O)c3C2=O)cc1OCC on PDE4A1A (Homo sapiens, UniProt P27815), anyone have it? 2.1

* * *

Molecular target: PDE4A1A (Homo sapiens)
Construct: purchased BPS 60040
Test: PDE4 activity inhibition assay, PDE4A1A
Assay type: biochemical
Settings: FAM-cAMP substrate, 30 minutes at room temperature
MEASURE_NAME: IC50

Quick one: IC50 for [2H]C([2H])([2H])Oc1ccc([C@H](CS(C)(=O)=O)N2C(=O)c3cc(F)cc(NC(C)=O)c3C2=O)cc1OC([2H])([2H])[2H] [Compound 206] ? 1460 nM

Consider the compound [2H]C([2H])([2H])Oc1ccc([C@@H](CS(C)(=O)=O)N2C(=O)c3cc(F)cc(NC(C)=O)c3C2=O)nc1OCC [Compound 724] and give its measured IC50. 2.3 nM

// returns reported IC50 for input CCOc1nc(C(CS(C)(=O)=O)N2C(=O)c3cccc(NC(=O)COCc4ccccc4)c3C2=O)ccc1OC (centres unmarked) [Compound 742] 2.4 nM

Sample CCOc1cc(C(CS(C)(=O)=O)N2C(=O)c3cc(F)cc(NC(C)=O)c3C2=O)ccc1OC (centres unmarked) [Compound 201] — what was its IC50? 39 nM

Given CCOc1nc(C(CS(C)(=O)=O)N2C(=O)c3cccc(NC(=O)COC)c3C2=O)ccc1OC (centres unmarked) [Compound 748] , state its recorded IC50. 2.8 nM

Next:
Which IC50 reading was recorded for the compound CCOc1cc(C(CS(C)(=O)=O)N2C(=O)c3ccnc(NC(C)=O)c3C2=O)ccc1OC (centres unmarked) [Compound 401] ? 182 nM

Endpoint output: IC50 of [2H]C([2H])([2H])Oc1ccc([C@@H](CS(C)(=O)=O)N2C(=O)c3cccc(NC(C)=O)c3C2=O)nc1OCC [Compound 711] . Value? 1.1 nM

Which IC50 value is on record for [2H]C([2H])([2H])Oc1ccc([C@@H](CS(C)(=O)=O)N2C(=O)c3cccc(NC(=O)C4CC4)c3C2=O)cc1OCC [Compound 120] ? 7.6 nM
